test system: Escherichia coli TOP10; experiment: shrunken log2 fold change of peptide-encoding DNA abundance (4.5 h post-induction vs induction); higher = less antimicrobial activity (less host growth inhibition); settings: time post-induction: 4.5 h; library: site-saturation at positions 5, 18, 19, 20;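 further: peptides expressed intracellularly from a pBAD plasmid library in pooled LB shake-flask culture, induced with 0.3% L-arabinose, DNA abundance read by NGS, three biological replicates, DESeq2 with apeglm shrinkage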
Please respond with reported shrunken log2 fold change for every item in the list.
Output spec: single numeric token, no unit.

Given the entry RRIRERPPRLPRPRPRPYPNPRP , report its measured shrunken log2 fold change.
-1.19

What would you report for RRIRQRPPRLPRPRPRPLLSPRP ?
0.00947

What would you report for RRIRNRPPRLPRPRPRPGTYPRP ?
-0.0105

What would you report for RRIRKRPPRLPRPRPRPDQTPRP ?
-0.0185

What would you report for RRIRRRPPRLPRPRPRPEVCPRP ?
0.793

What would you report for RRIRDRPPRLPRPRPRPPTAPRP ?
0.0444

Origin of measurements: the supplement of paper PMC9112550
